The reported measurements were obtained from patent US20210070748A1.

biological target: JAK3 (Homo sapiens, UniProt P52333); test: Inhibition of a panel of kinases, in vitro HotSpot kinase assay: JAK3; type: biochemical; settings: D-compounds panel data; 1 μM ATP; read-out: IC50 JAK3
Sequence (P52333 whole entry): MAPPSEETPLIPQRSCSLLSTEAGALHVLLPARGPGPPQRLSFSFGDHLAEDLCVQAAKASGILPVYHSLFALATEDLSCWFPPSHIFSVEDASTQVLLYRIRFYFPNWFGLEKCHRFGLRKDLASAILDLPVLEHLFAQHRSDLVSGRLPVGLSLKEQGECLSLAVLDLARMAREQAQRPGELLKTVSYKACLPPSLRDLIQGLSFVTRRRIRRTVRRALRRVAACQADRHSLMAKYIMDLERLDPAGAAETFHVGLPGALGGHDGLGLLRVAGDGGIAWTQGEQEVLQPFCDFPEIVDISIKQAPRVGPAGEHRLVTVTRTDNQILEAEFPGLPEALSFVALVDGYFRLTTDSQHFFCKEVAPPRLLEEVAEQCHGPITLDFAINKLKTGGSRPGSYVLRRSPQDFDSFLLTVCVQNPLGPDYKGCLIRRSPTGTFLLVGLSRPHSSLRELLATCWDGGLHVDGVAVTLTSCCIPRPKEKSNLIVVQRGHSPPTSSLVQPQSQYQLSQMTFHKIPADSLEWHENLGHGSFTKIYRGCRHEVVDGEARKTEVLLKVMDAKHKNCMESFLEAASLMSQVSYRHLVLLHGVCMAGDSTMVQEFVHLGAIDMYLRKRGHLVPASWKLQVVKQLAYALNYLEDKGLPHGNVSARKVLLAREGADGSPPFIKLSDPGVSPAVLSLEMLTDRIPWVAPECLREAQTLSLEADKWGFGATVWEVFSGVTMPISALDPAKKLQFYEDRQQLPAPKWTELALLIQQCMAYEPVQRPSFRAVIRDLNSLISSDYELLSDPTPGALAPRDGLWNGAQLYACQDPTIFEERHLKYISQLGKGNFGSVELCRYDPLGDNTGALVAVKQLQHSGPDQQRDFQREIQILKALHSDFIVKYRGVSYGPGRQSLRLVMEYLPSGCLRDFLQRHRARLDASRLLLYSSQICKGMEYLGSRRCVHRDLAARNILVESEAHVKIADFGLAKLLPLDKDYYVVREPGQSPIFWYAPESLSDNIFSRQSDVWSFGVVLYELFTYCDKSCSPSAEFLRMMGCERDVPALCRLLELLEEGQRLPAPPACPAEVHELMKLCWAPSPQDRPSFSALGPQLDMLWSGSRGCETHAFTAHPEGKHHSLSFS
IC50: recorded values

[Q] # input compound: Cn1cc(Nc2nc(N3CCC[C@@H]4[C@H]3CCN4C(=O)c3ccccc3)cnc2C(N)=O)cn1 (racemic) ; wanted: its IC50
[A] 1000 to 10000 nM

[Q] Look at this compound and give its reported IC50. Cc1cc(Nc2nc(N3C[C@H](NC(=O)N(C)C)CC[C@@H]3C)cnc2C(N)=O)sn1
[A] 100 to 1000 nM

[Q] Quick check: IC50 of Cn1cc(Nc2nc(N3CCC[C@@H](NC(=O)c4ccc(C5CC5)cc4)C3)cnc2C(N)=O)cn1 ?
[A] 1000 to 10000 nM

[Q] I would be grateful if you could share the reported IC50 for COC(C)(C)c1ccc(C(=O)N[C@@H]2CCCN(c3cnc(C(N)=O)c(Nc4cnn(C)c4)n3)[C@@H]2C)cc1 .
[A] 1000 to 10000 nM
